// Ki lookup, one value per entry
biological target: D1 (Homo sapiens, UniProt P21728); assay: Human D1 receptor binding assay ([3H]-SCH23390 competition); conditions: Human D1 Receptor Binding, Ki (nM), Geometric mean of 2-4 determinations, a: >=5 determinations, d: single determination
Sequence (P21728 whole entry): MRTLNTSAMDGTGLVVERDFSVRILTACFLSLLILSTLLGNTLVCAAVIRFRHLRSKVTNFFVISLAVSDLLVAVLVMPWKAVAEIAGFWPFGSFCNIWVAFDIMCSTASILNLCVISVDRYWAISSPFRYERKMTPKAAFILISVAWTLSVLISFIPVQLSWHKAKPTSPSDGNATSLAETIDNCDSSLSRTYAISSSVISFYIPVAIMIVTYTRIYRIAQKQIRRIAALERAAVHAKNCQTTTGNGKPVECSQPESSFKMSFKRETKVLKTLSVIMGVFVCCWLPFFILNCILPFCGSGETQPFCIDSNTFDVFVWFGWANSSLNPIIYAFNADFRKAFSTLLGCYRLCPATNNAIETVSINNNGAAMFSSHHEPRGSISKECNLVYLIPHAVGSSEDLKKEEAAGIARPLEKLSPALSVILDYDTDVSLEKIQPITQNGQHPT
Counter-ions that a name gives are not always drawn.
readout: Ki (nM)

>>> assayresult("Cc1cnn(C2CC2)c1-c1ccc(Oc2nccc3occc23)cc1 [Example 32, trifluoroacetate salt]")
281
>>> assayresult("Cc1cc(Oc2nccc3occc23)ccc1-c1c(C)cnnc1Cl")
11.8
>>> assayresult("COc1cnnc(C)c1-c1ccc(Oc2nccc3occc23)cc1C (single isomer, unassigned) [Example 135]")
38.7
>>> assayresult("Cc1cc(Oc2nccc3occ(C4CC4)c23)ccc1-c1c(C)ncnc1C [Example 209, trifluoroacetate salt]")
131
>>> assayresult("Cc1ncccc1-c1ccc(Oc2nccc3occc23)cc1OC1CCOCC1 [Example 205, formate salt]")
148
>>> assayresult("Cc1n[nH]c(=O)c(C)c1-c1ccc(Oc2nccc3occ(C#N)c23)cc1")
18.7
>>> assayresult("Cc1ncc(N)nc1-c1ccc(Oc2nccc3occc23)cc1F")
88
>>> assayresult("Cc1cc(Oc2nccc3occc23)ccc1-c1c(C)cnnc1C (single isomer, unassigned) [Example 13]")
10.7
